Overview of reported IC50 across a group of compounds:
# MEASUREMENT TARGET: Syk kinase (Homo sapiens, UniProt P43405)
# TEST DETAILS: Syk kinase biochemical fluorescence polarization assay
# PROTOCOL CONDITIONS: isolated Syk kinase, fluorescence polarization, 4 uM ATP
Could you give me the number in µM? Just the number is fine.

Previously resolved entries follow.
{"columns": ["COMPOUND", "MEASUREMENT TARGET", "UNITS SYMBOL", "IC50"],
 "data": [
  ["COc1cc(Nc2ncc(F)c(Nc3ccc4c(c3)NC(=O)[C@H](C)O4)n2)cc(OC)c1", "Syk kinase (Homo sapiens, UniProt P43405)", "µM", 0.017],
  ["CNC(=O)C1Cc2cc(Nc3ncc(F)c(Nc4ccc(OC(C)C)cc4)n3)ccc2O1 (centres unmarked)", "Syk kinase (Homo sapiens, UniProt P43405)", "µM", 0.38],
  ["OCCCn1ncc2cc(Nc3ncc(F)c(Nc4ccc(Cl)c(Cl)c4)n3)ccc21", "Syk kinase (Homo sapiens, UniProt P43405)", "µM", 0.223],
  ["CNC(=O)COc1cccc(Nc2ncc(F)c(Nc3ccc4c(c3)NC(=O)CO4)n2)c1", "Syk kinase (Homo sapiens, UniProt P43405)", "µM", 0.022],
  ["O=C(c1cc2cc(Nc3ncc(F)c(Nc4cccc(O)c4)n3)ccc2o1)N1CCNCC1 [Compound R926502]", "Syk kinase (Homo sapiens, UniProt P43405)", "µM", 0.217],
  ["Cn1ncc2ccc(Nc3ncc(F)c(Nc4ccc5c(n4)NC(=O)C(C)(C)O5)n3)cc21", "Syk kinase (Homo sapiens, UniProt P43405)", "µM", 0.053],
  ["O=C1COc2ccc(Nc3nc(Nc4ccc5c(c4)OCCO5)ncc3F)nc2N1", "Syk kinase (Homo sapiens, UniProt P43405)", "µM", 0.168]
]}

# input Item COc1ccc(Nc2ncc(F)c(Nc3ccc4c(c3)C(N)CCO4)n2)cc1Cl (racemic) : provide IC50
# output 0.127

* * *

# MEASUREMENT TARGET: Syk kinase (Homo sapiens, UniProt P43405)
# TEST DETAILS: Syk kinase biochemical fluorescence polarization assay
# PROTOCOL CONDITIONS: isolated Syk kinase, fluorescence polarization, 4 uM ATP
ENDPOINT LABEL: pIC50
# pIC50 is unitless: minus log10 of the molar concentration; print number only

# input Item Cc1cc(C)cc(Nc2ncc(F)c(Nc3ccc4c(n3)NC(=O)C(C)(C)O4)n2)c1 : provide pIC50
# output 6.37

* * *

# TEST DETAILS: Mouse Reverse Passive Arthus reaction (RPA reaction)
# Format: in vivo, C57BL/6 mice
# PROTOCOL CONDITIONS: oral, 100 mg/kg, pretreatment time 1.5 hrs + 4 hours
ENDPOINT LABEL: Plasma Concentration ± SEM (ng/ml) Exposure = Pretreatment Time + 4 hours (ng/mL)
Could you give me the number in ng/mL? Just the number is fine.

# input Item CC1(C)Oc2ccc(Nc3nc(Nc4ccc5cn[nH]c5c4)ncc3F)cc2NC1=O.O=S(=O)(O)c1ccccc1 : provide Plasma Concentration ± SEM (ng/ml) Exposure = Pretreatment Time + 4 hours
# output 206

* * *

# Tested on: differentiated human macrophages
# TEST DETAILS: Macrophage activation, IgG stimulation: TNF
# Type: cell-based
# PROTOCOL CONDITIONS: stimulus (IgG or LPS) not given; read-out: Monocytes/Macrophage TNF IC50
Overview of reported pIC50 across a group of compounds:
# pIC50 is unitless: minus log10 of the molar concentration; print number only

{"columns": ["CHEMICAL STRUCTURE", "MEASUREMENT TARGET", "EXPERIMENTAL VALUE"],
 "data": [
  ["COc1ccc(Nc2nc(Nc3ccc4cc[nH]c4c3)ncc2F)cc1Cl", "differentiated human macrophages", 5.36],
  ["Cc1cccc(C)c1Nc1ncc(F)c(Nc2ccc3c(c2)NC(=O)C(C)(C)O3)n1", "differentiated human macrophages", 5.07]
]}

# next compound below
# input Look up differentiated human macrophages data: pIC50 of CC1(C)Oc2ccc(Nc3nc(Nc4ccc5cn[nH]c5c4)ncc3F)cc2NC1=O , then report it.
# output 6.88
